Compiled record: IC50 values for UniProt Q9NWZ3 across several sources.
Label yes when IC50 is strictly below 5 nM; otherwise label no.

Qu. Strictly below 5 nM in IC50? CC(C)(O)[C@H](F)CNC(=O)c1cnc(Nc2ccc3nc(N)ccc3c2)cc1NC1CC1
Ans. no

Qu. Strictly below 5 nM in IC50? Cc1cc(-c2nc(C(=O)Nc3cn4cc(N=S(C)(C)=O)nc4cc3-c3ccccc3)co2)ccn1
Ans. yes

Qu. Strictly below 5 nM in IC50? COc1cc(Nc2cc(N[C@@H]3C[C@H](C(C)(C)O)[C@@H](O)[C@H]3O)c(-c3nc4ccccc4s3)cn2)ccn1
Ans. no

Qu. Strictly below 5 nM in IC50? COc1cc2nn(C3CC(CO)C3)cc2cc1NC(=O)c1cccc(C(F)(F)F)n1 (stereo not shown)
Ans. no

Qu. Strictly below 5 nM in IC50? CC(C)Nc1cc(-n2ncc3cc(C#N)cnc32)ncc1-c1cn(CCCN2CCCC2)nn1
Ans. no

Qu. Strictly below 5 nM in IC50? CC(C)(O)[C@H](F)CNC(=O)c1cnc(Nc2ccc3nccnc3c2)cc1NC1CCCC1(F)F (stereo partly shown)
Ans. yes

Qu. Strictly below 5 nM in IC50? Fc1cc2ncnc(N[C@H]3CC[C@H](N4CCOCC4)CC3)c2cc1-c1cn[nH]c1
Ans. yes

Qu. Strictly below 5 nM in IC50? CC(=O)N1CCC(N2CC(n3cc(NC(=O)c4cccc(-c5cnn(CC(F)F)c5)n4)c(C(F)F)n3)C2)CC1
Ans. yes

Qu. Strictly below 5 nM in IC50? CC(C)Nc1c(C(=O)NCCc2nnn[nH]2)cnc2ccc(-c3cn[nH]c3)cc12
Ans. no

Qu. Strictly below 5 nM in IC50? COc1cc2nn(C3CCNCC3)cc2cc1NC(=O)c1cccc(C(F)(F)F)n1
Ans. yes

Qu. Strictly below 5 nM in IC50? COc1cc2nn([C@H]3CC[C@H](O)CC3)cc2cc1NC(=O)c1cccc(C)[n+]1[O-]
Ans. no

###

Compiled record: IC50 values for IRAK4 (Homo sapiens (Human), UniProt Q9NWZ3) across several sources.
Numbers only here, please. The scale is nM.

Qu. With IRAK4 (Homo sapiens (Human), UniProt Q9NWZ3) as the test system, provide measured IC50 for this compound: O=C1CC[C@@H](COc2nccc3cc4c(=O)[nH]cc(C5CCCC5)c4cc23)N1
Ans. 55.9

Qu. With IRAK4 (Homo sapiens (Human), UniProt Q9NWZ3) as the test system, provide measured IC50 for this compound: CCOc1ccc(C(=O)N2CCC3(CC2)CC(CCN2CCC(n4cc5cc(NC(=O)c6cccc(C(F)(F)F)n6)c(C(C)(C)O)cc5n4)CC2)C3)cc1N1CCC(=O)NC1=O
Ans. 13.7

Qu. With IRAK4 (Homo sapiens (Human), UniProt Q9NWZ3) as the test system, provide measured IC50 for this compound: CC(C)Oc1cc2nc([C@]34CC[C@](C)(C3)OC4)cn2cc1C(=O)Nc1cccn([C@@H]2C[C@H]2F)c1=O (single isomer, unassigned)
Ans. 0.9

Qu. With IRAK4 (Homo sapiens (Human), UniProt Q9NWZ3) as the test system, provide measured IC50 for this compound: C[C@H](CCO)NC(=O)c1cnc2sc(-c3cncs3)cc2c1Nc1cnn(CC(F)F)c1
Ans. 1880
